Tested on: OVCAR-4 ovarian
Test: NCI tumour cell line growth inhibition, 48 h; in the data active = GI50 below about 0.43 µM; inactive = the rest
Outcome codes: Yes for active, No for inactive

# Molecule, Cat
records = [
    ("COC(=O)[C@@H](C[C@H](Cc1ccccc1)NC(=O)c1csc([C@@H](C[C@H](C(C)C)N(C)C(=O)[C@@H](NC(=O)[C@H]2CCCCN2C)C(C)C)OC(C)=O)n1)NC(=O)OCc1ccccc1", "Yes"),
    ("Clc1ccc(/C=C2\\CCCC3C2=Nc2ccccc2NC3c2ccc(Cl)cc2)cc1 (stereo not given)", "No"),
    ("O[N+]1=CC=CCC1=S.On1ccccc1=S.[Zn]", "No"),
    ("FC(F)(F)c1ccc(-c2cncn2-c2ccccc2)cc1", "No"),
    ("O=C(N/N=C\\c1c(O)ccc2ccccc12)C1CC1", "No"),
]

---

System: DU-145 prostate
Assay: NCI tumour cell line growth inhibition, 48 h
Readout kind: TGI

# Molecule, Target or test system, Result
records = [
    ("C[C@]12CCC3c4ccc(O)cc4CCC3C1CC[C@@]2(O)C#Cc1ccc(C#C/C=C\\C#Cc2ccccc2N)cc1 (some centres not stated)", "DU-145 prostate", "> 100 µM"),
    ("N#CC1(C#N)C2=C(CCCC2)NC(c2ccc(Br)cc2)C1(C#N)C#N (configuration not stated)", "DU-145 prostate", "25.1 µM"),
    ("CN(C(=O)CC(=O)CP(=O)(c1ccccc1)c1ccccc1)c1ccccc1", "DU-145 prostate", "> 100 µM"),
    ("CN([O-])c1nc(N(C)[O-])nc(N2CCOCC2)n1.CN([O-])c1nc(N(C)[OH2+])nc(N2CCOCC2)n1.[Fe+3]", "DU-145 prostate", "> 100 µM"),
    ("COc1ccc(C2C=C(c3ccccc3)Nc3nnnn32)cc1 (configuration not stated)", "DU-145 prostate", "> 100 µM"),
    ("Cc1ccc(-c2cc(C(=O)N3N=C(c4ccc(N)cc4)CC3c3ccc(Cl)cc3)c3ccccc3n2)cc1 (configuration not stated)", "DU-145 prostate", "> 100 µM"),
    ("c1ccc([P+](CCN2Cc3ccccc3C2)(c2ccccc2)c2ccccc2)cc1", "DU-145 prostate", "45.6 µM"),
    ("COc1c2c(cc3nc4ccccc4nc13)CC[C@H](NC(C)=O)c1cc(=O)c(SC)ccc1-2", "DU-145 prostate", "51.3 µM"),
    ("O=C1c2ccc(O)cc2OC(c2cc(O)c(O)c(O)c2)C1O (configuration not stated)", "DU-145 prostate", "> 100 µM"),
    ("Cc1nn2c(C(=O)N/N=C/c3ccccc3O)c(C)nc2s1", "DU-145 prostate", "> 100 µM"),
    ("Cc1cc(Nc2cccc(F)c2)nc(NCc2ccccc2)n1", "DU-145 prostate", "23.9 µM"),
    ("CN=C(NN)NS(=O)(=O)c1cc(C)c(Cl)cc1S", "DU-145 prostate", "> 100 µM"),
    ("CN(C)CCNc1ccc(NCCN(C)C)c2c1C(=O)c1ncsc1C2=O", "DU-145 prostate", "25.9 µM"),
    ("CCOC(=O)N/N=C(\\Cc1ccccc1)OCC", "DU-145 prostate", "> 100 µM"),
    ("COc1cc(O)c2c(=O)c(OC)c(-c3ccc(OC)c(OC)c3)oc2c1.[Co]", "DU-145 prostate", "> 100 µM"),
    ("CNc1nc(SC)nc2c1c(N)nn2C", "DU-145 prostate", "> 100 µM"),
    ("COc1ccc2nc3cc(Cl)ccc3c(NCCCCCN3CCCCC3)c2c1", "DU-145 prostate", "2.46 µM"),
    ("CNC(=O)N(C1=NCC(C)S1)c1ccc(C)c(C)c1 (configuration not stated)", "DU-145 prostate", "> 100 µM"),
    ("CC(C)(C)OC(=O)N1CCCC1=O", "DU-145 prostate", "> 10 µM"),
    ("Cn1cnc([N+](=O)[O-])c1[Se]c1ncnc2nc[nH]c12", "DU-145 prostate", "> 100 µM"),
    ("COc1ccc(S(=O)(=O)Nc2cc(/C=C\\c3cc(OC)c(OC)c(OC)c3)cc(OC)c2OC)cc1", "DU-145 prostate", "> 100 µM"),
    ("C/C=N\\n1c(C)n[nH]c1=O", "DU-145 prostate", "> 100 µM"),
]

---

System: HS 578T breast
Experiment: NCI tumour cell line growth inhibition, 48 h
Parameter threshold = 50 µM. Response is label 1 when TGI meets or exceeds it, else label 0.

# Molecule, Cat
records = [
    ("O=C1c2ccccc2C(=O)c2c(N=Nc3[nH]c(=S)[nH]c3O)cccc21", "label 0"),
    ("CN(C)CCCN1c2ccccc2CCc2cccc([N+](=O)[O-])c21", "label 1"),
    ("CCC1=C(c2ccc(OC)cc2)CC[C@@]2(CCNC2=O)[C@@H]1C", "label 1"),
    ("CCOC(=O)/C=C/C1=C(c2csc3ccccc23)c2ccccc2CC1", "label 1"),
    ("Clc1ccc(C2c3ccccc3-c3nccn32)c(Cl)c1 (stereo not given)", "label 0"),
    ("COC(=O)C(N)CSC(c1ccccc1)(c1ccccc1)c1ccccc1 (stereo not given)", "label 0"),
    ("Cc1nn2c(C(=O)N/N=C/c3ccccc3O)c(C)nc2s1", "label 1"),
    ("COC(=O)CCCc1c(-c2[nH]c3ccccc3c2CCCC(=O)OC)[nH]c2ccccc12", "label 1"),
    ("CN(C)CCNc1ccc2c(=O)n(CCN(C)C)c(=O)n3c4ccccc4c(=O)c1c23", "label 0"),
]

---

Tested on: OVCAR-3 ovarian
Test: NCI tumour cell line growth inhibition, 48 h
Readout kind: log10(TGI) (log10 of the value in µM)

# Compound, Measured number
data = [
    ("C[N+](C)=C/C=C(\\Cl)c1ccc2ccccc2c1", 1.13),
    ("COc1ccc(-c2cc(-c3ccc(Nc4ccnc5cc(C(F)(F)F)ccc45)cc3)nc(N)c2C#N)cc1", 1.53),
    ("Cc1cc(Nc2cccc(F)c2)nc(NCc2ccccc2)n1", 1.34),
    ("CC1CCC2(NC1)OC1CC3C4CCC5CC(OC6OC(CO)C(OC7OC(CO)C(O)C(OC8OCC(O)C(O)C8O)C7OC7OC(CO)C(O)C(O)C7O)C(O)C6O)CCC5(C)C4CCC3(C)C1C2C (stereo not given)", 0.49),
    ("FC(F)(F)c1ccc(-c2cncn2-c2ccccc2)cc1", 1.59),
    ("c1ccc2cc(CN3CCC(C4CCN(Cc5ccc6ccccc6c5)CC4)CC3)ccc2c1", 1.05),
    ("COc1ccc2nc3cc(Cl)ccc3c(NCCCCCN3CCCCC3)c2c1", 0.35),
    ("CN1CCN(CCn2c3c4ccccc4ccc3c3oc(=O)c4ccccc4c32)CC1", 1.37),
    ("O=[N+]([O-])/C(C(Cl)=C(Cl)Cl)=C(\\Nc1cccc2ccccc12)Sc1ccccc1", 1.34),
    ("O=C(O)CCCn1c(SCc2c(Cl)cccc2Cl)nc2ccsc2c1=O", 0.21),
    ("COc1ccc2c(c1)c(=O)c1c(NCCN(C)C)ccc3c(=O)n(CCN(C)C)c(=O)n2c31", 0.32),
    ("CCN(CC)CCOc1ccc(/C=C2\\CC3C4CC=C5C[C@@H](N6CCCC6)CC[C@]5(C)C4CC[C@]3(C)[C@H]2OC(C)=O)cc1OC (stereo not given in full)", 0.26),
    ("Cc1ccc(-c2cc(C(=O)N3N=C(c4ccc(N)cc4)CC3c3ccc(Cl)cc3)c3ccccc3n2)cc1 (stereo not given)", 1.56),
    ("NC(=O)c1cccc(N2Cc3ccccc3OC3=C2C(=O)c2c(O)ccc(O)c2C3=O)c1", -0.19),
]

---

System: HOP-92 NSCLC
Assay: NCI tumour cell line growth inhibition, 48 h; in the data active = GI50 below about 0.43 µM; inactive = the rest
Outcome codes: Yes = active, No = inactive

# Molecule, Cat
records = [
    ("COc1cccc2c1-c1ccccc1C2=O", "No"),
    ("CCOC(=O)C1=C(C)N(c2ccc(OC)cc2)C2(O)C=CC(=O)C3C(=O)N(c4ccccc4)C(=O)C132 (centres undefined)", "No"),
    ("CCN(CC)CCOc1ccc(/C=C2\\CC3C4CC=C5C[C@@H](N6CCCC6)CC[C@]5(C)C4CC[C@]3(C)[C@H]2OC(C)=O)cc1OC (some centres undefined)", "Yes"),
    ("C[C@@H](O)[C@H]1C(=O)N2C(C(=O)O)=C(SCCN=CN)C[C@H]12", "No"),
    ("CC(C)[C@]12O[C@H]1[C@@H]1O[C@]13[C@]1(O[C@H]1C[C@H]1C4=C(CC[C@@]13C)C(=O)OC4)[C@@H]2OC(=O)CN(C)C", "Yes"),
    ("CN(C)c1ccc2nc3ccc(N)cc3[n+](-c3ccccc3)c2c1", "No"),
    ("C[C@]12CCC3c4ccc(O)cc4CCC3C1CC[C@@]2(O)C#Cc1ccc(C#C/C=C\\C#Cc2ccccc2N)cc1 (some centres undefined)", "No"),
    ("COc1cc(O)c2c(=O)c(OC)c(-c3ccc(OC)c(OC)c3)oc2c1.[Co]", "No"),
    ("COC(=O)C1=C(O)[C@H](C(=O)OC)C2(O)[C@@H](C(=O)OC)[C@H]1C[C@@H](c1ccc(OC(=O)n3ccnc3)cc1)[C@@H]2C(=O)OC", "No"),
]

These data points were gathered from PubChem BioAssay (NCI).
